Tested on: NCI-H1437
Assay: relative viability (nuclei count vs DMSO), 5 days (fraction); higher = more cells survive
Conditions: first compound 0.4 µM
Here, each record is paired with measured relative viability data.
Keep it simple and answer with nothing but the number.

For orientation, consider the following solved cases.
molecule	tested.target	relative viability
O=C(O)c1ccc(-c2c[nH]c3ncc(-c4ccccc4)cc23)cc1C1CCCC1 + COc1cc2c(Oc3ccc(NC(=O)C4(C(=O)Nc5ccc(F)cc5)CC4)cc3F)ccnc2cc1OCCCN1CCOCC1 [Foretinib] (partner 0.25 µM)	NCI-H1437	1.11
O=C(O)c1ccc(-c2c[nH]c3ncc(-c4ccccc4)cc23)cc1C1CCCC1 + Cc1nc(NC(=O)N2CCC[C@H]2C(N)=O)sc1-c1ccnc(C(C)(C)C(F)(F)F)c1 [Alpelisib] (partner 2 µM)	NCI-H1437	0.914
O=C(O)c1ccc(-c2c[nH]c3ncc(-c4ccccc4)cc23)cc1C1CCCC1 + CC1(C)CCC(c2ccc(Cl)cc2)=C(CN2CCN(c3ccc(C(=O)NS(=O)(=O)c4ccc(N[C@H](CCN5CCOCC5)CSc5ccccc5)c(S(=O)(=O)C(F)(F)F)c4)cc3)CC2)C1 [Navitoclax] (partner 0.5 µM)	NCI-H1437	0.955

Query: Bench note: what relative viability did O=C(O)c1ccc(-c2c[nH]c3ncc(-c4ccccc4)cc23)cc1C1CCCC1 + Nc1nc2[nH]cc(CCc3ccc(C(=O)N[C@@H](CCC(=O)O)C(=O)O)cc3)c2c(=O)[nH]1 [Pemetrexed] (partner 0.2 µM) show?
Response: 0.311

----------
Tested on: NCI-H2228
Assay: relative viability (nuclei count vs DMSO), 5 days (fraction); higher = more cells survive
Conditions: first compound 0.005 µM
value.kind: relative viability
Keep it simple and answer with nothing but the number.

Query: Request: relative viability, test system NCI-H2228, entry CC1(C)CCC(c2ccc(Cl)cc2)=C(CN2CCN(c3ccc(C(=O)NS(=O)(=O)c4ccc(N[C@H](CCN5CCOCC5)CSc5ccccc5)c(S(=O)(=O)C(F)(F)F)c4)cc3)CC2)C1 [Navitoclax] + Cc1nc(Nc2ncc(C(=O)Nc3c(C)cccc3Cl)s2)cc(N2CCN(CCO)CC2)n1 [Dasatinib] (partner 0.075 µM)
Response: 0.519

----------
System: LCLC-103H
Experiment: relative viability (nuclei count vs DMSO), 5 days (fraction); higher = more cells survive
Conditions: first compound 0.1581 µM
value.kind: relative viability
Keep it simple and answer with nothing but the number.

For orientation, consider the following solved cases.
compound	measurement
CC1(C)CCC(c2ccc(Cl)cc2)=C(CN2CCN(c3ccc(C(=O)NS(=O)(=O)c4ccc(N[C@H](CCN5CCOCC5)CSc5ccccc5)c(S(=O)(=O)C(F)(F)F)c4)cc3)CC2)C1 [Navitoclax] + CC(C)C[C@H](NC(=O)[C@H](Cc1ccccc1)NC(=O)c1cnccn1)B(O)O [Bortezomib] (partner 0.002 µM)	1.15
CC1(C)CCC(c2ccc(Cl)cc2)=C(CN2CCN(c3ccc(C(=O)NS(=O)(=O)c4ccc(N[C@H](CCN5CCOCC5)CSc5ccccc5)c(S(=O)(=O)C(F)(F)F)c4)cc3)CC2)C1 [Navitoclax] + Cc1nc(Nc2ncc(C(=O)Nc3c(C)cccc3Cl)s2)cc(N2CCN(CCO)CC2)n1 [Dasatinib] (partner 0.075 µM)	0.539

Query: Bench note: what relative viability did CC1(C)CCC(c2ccc(Cl)cc2)=C(CN2CCN(c3ccc(C(=O)NS(=O)(=O)c4ccc(N[C@H](CCN5CCOCC5)CSc5ccccc5)c(S(=O)(=O)C(F)(F)F)c4)cc3)CC2)C1 [Navitoclax] + Nc1ncn([C@H]2C[C@H](O)[C@@H](CO)O2)c(=O)n1 [Decitabine] (partner 2 µM) show?
Response: 0.703

Query: What do we get for CC1(C)CCC(c2ccc(Cl)cc2)=C(CN2CCN(c3ccc(C(=O)NS(=O)(=O)c4ccc(N[C@H](CCN5CCOCC5)CSc5ccccc5)c(S(=O)(=O)C(F)(F)F)c4)cc3)CC2)C1 [Navitoclax] + COc1cc2c(Oc3ccc(NC(=O)C4(C(=O)Nc5ccc(F)cc5)CC4)cc3F)ccnc2cc1OCCCN1CCOCC1 [Foretinib] (partner 0.25 µM) ?
Response: 0.832

Query: What do we get for CC1(C)CCC(c2ccc(Cl)cc2)=C(CN2CCN(c3ccc(C(=O)NS(=O)(=O)c4ccc(N[C@H](CCN5CCOCC5)CSc5ccccc5)c(S(=O)(=O)C(F)(F)F)c4)cc3)CC2)C1 [Navitoclax] + COc1cccc2cc(-c3nc([C@H]4CC[C@H](C(=O)O)CC4)n4ncnc(N)c34)[nH]c12 [OSI-027] (partner 0.5 µM) ?
Response: 0.479

Query: What do we get for CC1(C)CCC(c2ccc(Cl)cc2)=C(CN2CCN(c3ccc(C(=O)NS(=O)(=O)c4ccc(N[C@H](CCN5CCOCC5)CSc5ccccc5)c(S(=O)(=O)C(F)(F)F)c4)cc3)CC2)C1 [Navitoclax] + NC(=O)Nc1cc(-c2cccc(F)c2)sc1C(=O)N[C@H]1CCCNC1 [AZD7762] (partner 0.2 µM) ?
Response: 0.826
